# SYSTEM TESTED: FAAH (Mus musculus, UniProt O08914)
# Construct: Proteomes (mouse brain membrane fraction or cell lysates); from tissue; host or cells: mouse brain membrane fraction (or cell lysates, not specified)
# Sequence (O08914 1-579): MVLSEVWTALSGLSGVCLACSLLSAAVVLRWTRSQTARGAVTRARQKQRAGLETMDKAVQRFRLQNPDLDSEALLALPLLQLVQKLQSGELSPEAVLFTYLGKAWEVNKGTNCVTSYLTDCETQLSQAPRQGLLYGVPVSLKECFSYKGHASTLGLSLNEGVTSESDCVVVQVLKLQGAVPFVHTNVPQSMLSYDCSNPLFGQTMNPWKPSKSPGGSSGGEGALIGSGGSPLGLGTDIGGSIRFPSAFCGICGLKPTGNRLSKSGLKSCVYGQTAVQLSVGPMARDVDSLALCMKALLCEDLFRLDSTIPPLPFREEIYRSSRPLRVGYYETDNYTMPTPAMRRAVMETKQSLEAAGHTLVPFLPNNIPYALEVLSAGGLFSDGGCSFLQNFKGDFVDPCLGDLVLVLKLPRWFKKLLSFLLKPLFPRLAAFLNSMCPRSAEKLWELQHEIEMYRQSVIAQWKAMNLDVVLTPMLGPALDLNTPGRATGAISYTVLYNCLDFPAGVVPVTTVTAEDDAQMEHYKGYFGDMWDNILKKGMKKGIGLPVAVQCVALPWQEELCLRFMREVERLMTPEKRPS
# PROTOCOL: In vitro competitive activity-based protein profiling (gel-based, FP-Rh or HT-01 probe)
# Type: biochemical
# PARTICULARS: mouse brain membrane fraction or cell lysates, 30 min preincubation at 37° C.; read-out: Mouse (IC50 value, nM) FAAH
Listed compounds paired with reported IC50

STRUCTURE SMILES STRING	SYSTEM TESTED	IC50
CNC(=O)c1cnn(C(=O)N2CCN(Cc3ccc(Cl)cc3)CC2)c1	FAAH (Mus musculus, UniProt O08914)	100 to 1000 nM
NC(=O)c1cnn(C(=O)N2CCN(Cc3ccc(Cl)cc3)CC2)c1	FAAH (Mus musculus, UniProt O08914)	100 to 1000 nM

Exam item: Any idea what IC50 was measured for O=C(N1CCN(Cc2c(N3CCCC3)cccc2C(F)(F)F)CC1)n1cc(F)cn1 ?
Marked response: > 1000 nM

Exam item: Any idea what IC50 was measured for O=C(c1cnn(C(=O)N2CCN(C(c3ccc(Cl)cc3)c3ccc(Cl)cc3)CC2)c1)N1CCOCC1 ?
Marked response: > 1000 nM

Exam item: Any idea what IC50 was measured for O=C(N1CCN(Cc2cccc(Oc3ccccc3)c2)CC1)n1cc(Cl)cn1 ?
Marked response: < 100 nM

Exam item: Any idea what IC50 was measured for O=C(N1CCN(Cc2ccccc2N2CCCC2)CC1)n1cc(C(F)(F)F)cn1 ?
Marked response: 100 to 1000 nM

Exam item: Any idea what IC50 was measured for O=C(N1CCN(Cc2cccc(Cl)c2)CC1)n1cc(C(F)(F)F)cn1 ?
Marked response: < 100 nM

Exam item: Any idea what IC50 was measured for COc1cc(-c2ccccc2)ccc1CN1CCN(C(=O)n2cc(Cl)cn2)CC1 ?
Marked response: 100 to 1000 nM

Exam item: Any idea what IC50 was measured for O=C(c1cnn(C(=O)N2CCN(C(c3ccc(Cl)cc3)c3ccc(Cl)cc3)CC2)c1)N1CCCC1 ?
Marked response: > 1000 nM

Exam item: Any idea what IC50 was measured for CCN(Cc1cccc(N2CCOCC2)c1)C(=O)n1cc(C(F)(F)F)cn1 ?
Marked response: < 100 nM

Exam item: Any idea what IC50 was measured for Cc1cc(-c2ccccc2)ccc1CN1CCN(C(=O)n2cc(C(=O)N3CCCC3)cn2)CC1 ?
Marked response: < 100 nM

Exam item: Any idea what IC50 was measured for CCN(Cc1cccc(C)c1)C(=O)n1cc(C#N)cn1 ?
Marked response: < 100 nM

Exam item: Any idea what IC50 was measured for O=C(N1CCN(Cc2cccc(Cl)c2)CC1)n1cc(Cl)cn1 ?
Marked response: < 100 nM

Exam item: Any idea what IC50 was measured for O=C(N1CCN(Cc2ccccc2Cl)CC1)n1cc(Cl)cn1 ?
Marked response: 100 to 1000 nM

Exam item: Any idea what IC50 was measured for N#Cc1cnn(C(=O)N2CCCN(C(=O)c3ccccc3)CC2)c1 ?
Marked response: 100 to 1000 nM
